- testName: Solubility in water
- Format: physicochemical
resultType: solubility (µg/mL)

1: COc1ccn2cc(-c3ccc(NC(=O)Nc4cc(C(C)(C)C)on4)cc3)nc2c1
2: C#Cc1ccn2cc(-c3ccc(NC(=O)Nc4cc(C(C)(C)C)on4)cc3)nc2c1
Q) Which item exceeds the other in solubility, 1 or 2 ? Output the label that corresponds to your choice.
A) 1

====

- System: HepG2
- testName: Growth inhibition of human HepG2 cells incubated for 72 hrs by MTT assay
- Assay type: functional, cell-based
- reportedConditions: HepG2, 72 h
resultType: IC50

Q) GET /values?readout=IC50&item= COc1ccn2cc(-c3ccc(NC(=O)Nc4cc(C(C)(C)C)on4)cc3)nc2c1
A) > 20 µM

====

- testName: Clearance in Sprague-Dawley rat at 30 mg/kg, po after 15 mins to 24 hrs by HPLC method
- Format: ADME, organism-based
- reportedConditions: in vivo
resultType: CL/F (L/h/kg)
Kindly provide the numeric value in L/h/kg only, without the unit symbol.

Q) GET /values?readout=CL/F&item= COc1ccn2cc(-c3ccc(NC(=O)Nc4cc(C(C)(C)C)on4)cc3)nc2c1
A) 2.01

====

- testName: Solubility in MeOH solution
- Assay type: physicochemical
resultType: solubility (µg/mL)

Q) GET /values?readout=solubility&item= C#Cc1ccn2cc(-c3ccc(NC(=O)Nc4cc(C(C)(C)C)on4)cc3)nc2c1
A) 5840

Q) What would you report for COc1ccn2cc(-c3ccc(NC(=O)Nc4cc(C(C)(C)C)on4)cc3)nc2c1 ?
A) 7460

Q) What would you report for Cc1ccn2cc(-c3ccc(NC(=O)Nc4cc(C(C)(C)C)on4)cc3)nc2c1 ?
A) 6830

Q) What would you report for CC(C)(C)c1cc(NC(=O)Nc2ccc(-c3cn4ccccc4n3)cc2)no1 ?
A) 5280

====

- testName: Apparent half life in Sprague-Dawley rat at 30 mg/kg, po after 15 mins to 24 hrs by HPLC method
- Type: ADME, organism-based
- reportedConditions: in vivo, read-out: t1/2(app) (converted)
resultType: half-life (h)
Kindly provide the numeric value in h only, without the unit symbol.

Q) GET /values?readout=half-life&item= COc1ccn2cc(-c3ccc(NC(=O)Nc4cc(C(C)(C)C)on4)cc3)nc2c1
A) 4.86

====

- testName: Solubility in EtOH solution
- Format: physicochemical
resultType: solubility (µg/mL)

Q) GET /values?readout=solubility&item= C#Cc1ccn2cc(-c3ccc(NC(=O)Nc4cc(C(C)(C)C)on4)cc3)nc2c1
A) 4100

Q) What would you report for Cc1ccn2cc(-c3ccc(NC(=O)Nc4cc(C(C)(C)C)on4)cc3)nc2c1 ?
A) 3340

Q) What would you report for COc1ccn2cc(-c3ccc(NC(=O)Nc4cc(C(C)(C)C)on4)cc3)nc2c1 ?
A) 3150

Q) What would you report for CC(C)(C)c1cc(NC(=O)Nc2ccc(-c3cn4ccccc4n3)cc2)no1 ?
A) 4070

====

- Test system: MV4-11
- testName: Cytotoxicity against human MV4-11 cells incubated for 72 hrs by MTT assay
- Type: functional, cell-based
- reportedConditions: MV4-11, 72 h
# Lookup of reported IC50 keyed by entry
Kindly provide the numeric value in nM only, without the unit symbol.

For orientation, consider the following solved cases.
Q) What value of IC50 on MV4-11 does CC(C)(C)c1cc(NC(=O)Nc2ccc(-c3cn4cccnc4n3)cc2)no1 have?
A) 171

Q) What would you report for CC(C)(C)c1cc(NC(=O)Nc2ccc(-c3cn4cc(F)ccc4n3)cc2)no1 ?
A) 20.9

Others:
Q) What value of IC50 on MV4-11 does Cc1ccn2cc(-c3ccc(NC(=O)Nc4cc(C(C)(C)C)on4)cc3)nc2c1 have?
A) 0.79

Q) What would you report for CC(C)(C)c1cc(NC(=O)Nc2ccc(-c3cn4ccc(Br)cc4n3)cc2)no1 ?
A) 9.59

Q) What would you report for CC(C)(C)c1cc(NC(=O)Nc2ccc(-c3cn4ncccc4n3)cc2)no1 ?
A) 59

Q) What would you report for CC(C)(C)c1cc(NC(=O)Nc2ccc(-c3cn4c(Cl)cccc4n3)cc2)no1 ?
A) 56.1

Q) What would you report for Cc1cccc2nc(-c3ccc(NC(=O)Nc4cc(C(C)(C)C)on4)cc3)cn12 ?
A) 20.2

Q) What would you report for CC(C)(C)c1cc(NC(=O)Nc2ccc(-c3cn4cccc(F)c4n3)cc2)no1 ?
A) 12.2
